- targetDesc: HLA-A*02:01 (Homo sapiens, UniProt P04439, D140Y/D185E/D98H/E176V/E277Q/G131W/G231S/I119V/I121R/I166T/I218V/L300P/L318F/N151K/N90K/P208A/P217A/Q86G/Q94H/R138H/R169H/T345S)
- experimentalProtocol: HLA-peptide competition binding assay, A*02:01
- testSettings: post-translationally modified insulin peptide; competition binding assay; a dash indicates IC50 >40,000 nM; read-out: A*02:01 binding (IC50 nM) Modified
Where a SMILES comes first, the peptide text is derived from it. [ ]: non-standard residue; d: D form. Cya = N[C@@H](CS(=O)(=O)O)C(=O)O; Cit = NC(=O)NCCC[C@H](N)C(=O)O
Provide the recorded IC50 for the entries that follow.

Note to self: IC50 recorded for C[C@H](NC(=O)[C@H](CCC(=O)O)NC(=O)[C@H](CCCNC(N)=O)NC(=O)[C@H](CCCNC(N)=O)NC(=O)[C@@H](NC(=O)[C@H](CCCCN)NC(=O)[C@@H]1CCCN1)[C@@H](C)O)C(=O)N[C@@H](CCC(=O)O)C(=O)N[C@@H](CC(=O)O)C(=O)O [PKTUUEAED] (H-PKT[Cit][Cit]EAED-OH; N-terminus and C-terminus assumed) was > 40000 nM

Note to self: IC50 recorded for CC[C@H](C)[C@H](NC(=O)CNC(=O)[C@H](CCCNC(N)=O)NC(=O)[C@H](CCCCN)NC(=O)[C@H](CCC(N)=O)NC(=O)[C@H](CC(C)C)NC(=O)[C@H](CO)NC(=O)CNC(=O)[C@@H](N)CCC(=O)O)C(=O)O (H-EGSLQK[Cit]GI-OH; N-terminus and C-terminus assumed) was > 40000 nM

Note to self: IC50 recorded for CC(C)[C@H](N)C(=O)N[C@@H](CS(=O)(=O)O)C(=O)NCC(=O)N[C@@H](CCC(=O)O)C(=O)N[C@@H](CCCNC(=N)N)C(=O)NCC(=O)N[C@@H](Cc1ccc(O)cc1)C(=O)N[C@@H](Cc1ccc(O)cc1)C(=O)N[C@@H](Cc1ccc(O)cc1)C(=O)N[C@H](C(=O)O)[C@@H](C)O [VBGERGYYYT] (H-V[Cya]GERGYYYT-OH; N-terminus and C-terminus assumed) was > 40000 nM
